Numbers sourced from ChEMBL document CHEMBL5321284.

- tgt: von Hippel-Lindau disease tumor suppressor/1-phosphatidylinositol 3-phosphate 5-kinase (Homo sapiens) (UniProt Q9Y2I7+P40337)
- Sequence (P40337 whole entry partner): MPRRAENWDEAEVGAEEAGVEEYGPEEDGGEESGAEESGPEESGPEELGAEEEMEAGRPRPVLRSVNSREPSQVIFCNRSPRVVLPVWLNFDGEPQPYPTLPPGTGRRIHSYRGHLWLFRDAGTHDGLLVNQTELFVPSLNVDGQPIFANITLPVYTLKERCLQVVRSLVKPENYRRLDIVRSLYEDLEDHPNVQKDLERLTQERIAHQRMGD
- Sequence (Q9Y2I7 2-2098 limits assumed): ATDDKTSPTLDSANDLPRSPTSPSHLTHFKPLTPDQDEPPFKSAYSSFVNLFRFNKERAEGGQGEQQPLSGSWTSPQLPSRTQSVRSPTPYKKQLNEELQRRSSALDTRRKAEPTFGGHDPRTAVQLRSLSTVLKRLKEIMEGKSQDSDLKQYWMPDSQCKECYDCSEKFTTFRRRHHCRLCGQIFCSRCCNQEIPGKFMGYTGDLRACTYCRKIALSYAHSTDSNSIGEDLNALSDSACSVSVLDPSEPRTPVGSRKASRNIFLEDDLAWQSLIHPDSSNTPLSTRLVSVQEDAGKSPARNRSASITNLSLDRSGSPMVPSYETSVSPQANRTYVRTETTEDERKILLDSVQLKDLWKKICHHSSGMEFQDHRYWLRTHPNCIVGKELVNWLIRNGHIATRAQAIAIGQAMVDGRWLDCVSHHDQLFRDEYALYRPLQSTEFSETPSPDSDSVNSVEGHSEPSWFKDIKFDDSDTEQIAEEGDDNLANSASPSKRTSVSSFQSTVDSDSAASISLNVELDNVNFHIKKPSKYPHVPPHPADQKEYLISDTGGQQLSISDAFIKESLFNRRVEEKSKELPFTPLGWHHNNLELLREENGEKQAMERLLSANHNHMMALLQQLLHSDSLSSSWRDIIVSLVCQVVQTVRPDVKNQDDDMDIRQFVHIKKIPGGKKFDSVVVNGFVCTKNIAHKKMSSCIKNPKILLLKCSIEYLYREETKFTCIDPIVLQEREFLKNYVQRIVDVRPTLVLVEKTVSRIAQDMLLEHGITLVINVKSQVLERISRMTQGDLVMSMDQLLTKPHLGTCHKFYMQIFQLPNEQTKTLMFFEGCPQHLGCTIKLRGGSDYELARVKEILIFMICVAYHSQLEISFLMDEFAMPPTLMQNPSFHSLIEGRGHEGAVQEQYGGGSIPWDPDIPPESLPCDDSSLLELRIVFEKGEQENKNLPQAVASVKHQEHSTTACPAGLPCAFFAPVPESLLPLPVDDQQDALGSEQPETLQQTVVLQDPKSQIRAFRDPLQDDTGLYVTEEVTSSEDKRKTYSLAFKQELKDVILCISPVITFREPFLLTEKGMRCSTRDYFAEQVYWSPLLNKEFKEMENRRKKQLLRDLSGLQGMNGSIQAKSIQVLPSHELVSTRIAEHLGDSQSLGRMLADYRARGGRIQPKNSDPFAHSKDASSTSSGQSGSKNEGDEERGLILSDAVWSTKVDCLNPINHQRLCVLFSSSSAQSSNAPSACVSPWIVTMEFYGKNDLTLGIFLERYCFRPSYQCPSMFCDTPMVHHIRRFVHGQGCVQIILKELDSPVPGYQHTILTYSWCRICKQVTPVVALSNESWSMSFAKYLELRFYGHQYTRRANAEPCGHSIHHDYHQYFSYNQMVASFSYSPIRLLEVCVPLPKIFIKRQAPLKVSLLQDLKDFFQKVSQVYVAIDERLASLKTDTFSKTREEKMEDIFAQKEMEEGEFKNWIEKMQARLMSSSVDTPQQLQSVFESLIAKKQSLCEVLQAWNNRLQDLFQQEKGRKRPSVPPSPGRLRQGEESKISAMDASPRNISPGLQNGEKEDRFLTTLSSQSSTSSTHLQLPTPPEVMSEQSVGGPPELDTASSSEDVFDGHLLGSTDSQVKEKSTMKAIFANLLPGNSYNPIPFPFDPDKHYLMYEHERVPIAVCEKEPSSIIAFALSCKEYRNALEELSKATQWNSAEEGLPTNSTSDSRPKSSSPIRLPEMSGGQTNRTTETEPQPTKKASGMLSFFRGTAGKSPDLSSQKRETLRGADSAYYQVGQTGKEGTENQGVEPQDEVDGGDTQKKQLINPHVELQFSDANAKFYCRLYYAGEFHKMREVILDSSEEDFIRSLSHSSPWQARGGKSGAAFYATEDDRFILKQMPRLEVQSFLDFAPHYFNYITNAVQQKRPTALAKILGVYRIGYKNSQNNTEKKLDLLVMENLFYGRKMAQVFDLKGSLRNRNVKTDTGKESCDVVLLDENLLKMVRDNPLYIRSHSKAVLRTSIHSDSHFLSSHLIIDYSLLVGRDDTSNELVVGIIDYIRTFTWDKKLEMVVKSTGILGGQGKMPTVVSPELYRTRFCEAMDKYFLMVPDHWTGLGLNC
- measurement description: PROTAC activity at VHL/PIKfyve in human VCaP cells assessed as induction of PIKfyve degradation at 0.1 uM incubated for 24 hrs by immunoblot analysis
- Type: cell-based
Listed below: Activity values for each entry.
Use % as the unit, but write only the number.

Some solved entries appear below for comparison.
* Cc1cccc(/C=N/Nc2cc(N3CCOCC3)nc(OCCNC(=O)CCCCCC(=O)N[C@H](C(=O)N3C[C@H](O)C[C@H]3C(=O)NCc3ccc(-c4scnc4C)cc3)C(C)(C)C)n2)c1 | 3
* Cc1cccc(/C=N/Nc2cc(N3CCOCC3)nc(OCCc3ccc(NC(=O)CCC(=O)N[C@H](C(=O)N4C[C@H](O)C[C@H]4C(=O)NCc4ccc(-c5scnc5C)cc4)C(C)(C)C)cc3)n2)c1 | 0

Item: Cc1cccc(/C=N/Nc2cc(N3CCOCC3)nc(OCCc3ccc(NC(=O)CCCCC(=O)N[C@H](C(=O)N4C[C@H](O)C[C@H]4C(=O)N[C@@H](C)c4ccc(-c5scnc5C)cc4)C(C)(C)C)cc3)n2)c1 | Activity: 47
